Entries with reported IC50 on CSNK1A1 (Homo sapiens (Human), UniProt P48729)
Sequence (P48729 whole entry): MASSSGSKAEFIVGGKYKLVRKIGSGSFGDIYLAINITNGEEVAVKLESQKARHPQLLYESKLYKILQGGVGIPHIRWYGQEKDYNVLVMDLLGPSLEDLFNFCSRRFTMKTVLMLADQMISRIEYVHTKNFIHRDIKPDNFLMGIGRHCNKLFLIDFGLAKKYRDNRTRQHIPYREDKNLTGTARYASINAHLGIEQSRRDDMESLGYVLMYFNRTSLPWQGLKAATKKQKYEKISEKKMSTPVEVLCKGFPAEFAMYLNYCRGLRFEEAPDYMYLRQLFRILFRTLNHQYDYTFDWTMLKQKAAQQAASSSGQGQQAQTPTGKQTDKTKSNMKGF
Answers are plain numbers, in nM.

Reference set (5 entries):
Cn1cc(CC(F)(F)F)c2[nH]c(-c3ccnc(NC(=O)C(CC(F)F)c4ccc(F)cc4)c3)c(-c3ccc(F)cc3)c2c1=O (racemic) [Example 26]: 11
Cn1cc(CC2CC2)c2[nH]c(-c3ccnc(NC(=O)Cc4ccc(F)cc4)c3)c(-c3ccccc3)c2c1=O: 4.4
CC(C(=O)Nc1cc(-c2[nH]c3c(CC(F)(F)F)cn(C)c(=O)c3c2-c2ccccc2)ccn1)c1ccc(F)cc1 (racemic) [Example 14]: 4.7
CC1c2[nH]c(-c3ccnc(NC(=O)C(CC(F)F)c4ccc(F)cc4)c3)c(-c3ccccc3)c2C(=O)N(C)C1C (centres unmarked): 5.7
CC(C(=O)Nc1cc(-c2[nH]c3c(c2-c2cccnc2)C(=O)NC(C)(C)C3)ccn1)c1ccc(F)cc1 (racemic) [Example 97]: 8.1

Please state IC50 for every compound in the list that follows.
1. Cn1cc(CC(F)(F)F)c2[nH]c(-c3ccnc(NC(=O)C(CC(F)F)c4ccc(F)cc4)c3)c(-c3ccc(F)cc3)c2c1=O (single isomer, unassigned) [Example 27]
2. Cn1cc(Cl)c2[nH]c(-c3ccnc(NC(=O)Cc4ccc(F)cc4)c3)c(-c3ccccc3)c2c1=O
3. Cc1c(-c2ccnc(NC(=O)C(C)c3ccc(F)cc3)c2)[nH]c2ccn(C)c(=O)c12 (racemic)
4. CC(C(=O)Nc1cc(-c2[nH]c3c(CC(F)(F)F)cn(C)c(=O)c3c2-c2ccccc2)ccn1)c1ccc(F)cc1 (single isomer, unassigned; (+)) [Example 15]
5. CC(C(=O)Nc1cc(-c2[nH]c3c(c2-c2ccc(F)cc2F)C(=O)N(C)CC3)ccn1)c1ccc(F)cc1 (racemic) [Example 69]

**Result**
12
5.1
6.3
2.3
3.1

Please give IC50 for each item listed below.
1. COCCNC(=O)c1ccc(CC(=O)Nc2cc(-c3[nH]c4ccn(C)c(=O)c4c3-c3ccc(F)cc3)ccn2)cc1
2. CC(C(=O)Nc1cc(-c2[nH]c3c(CC(F)(F)F)cn(C)c(=O)c3c2-c2ccc(F)cc2)ccn1)c1ccc(F)cc1 (racemic) [Example 22]
3. CN1CCc2[nH]c(-c3ccnc(NC(=O)C(CC(F)F)c4ccc(F)cc4)c3)c(-c3ccccc3)c2C1=O (single isomer, unassigned) [Example 4]
4. Cc1cn(C)c(=O)c2c(-c3ccccc3)c(-c3ccnc(NC(=O)C(CC(F)F)c4ccc(F)cc4)c3)[nH]c12 (racemic)
5. Cc1ccccc1-c1c(-c2ccnc(NC(=O)C(C)c3ccc(F)cc3)c2)[nH]c2ccn(C)c(=O)c12 (racemic)
6. CC1CN(C)C(=O)c2c1[nH]c(-c1ccnc(NC(=O)C(C)c3ccc(F)cc3)c1)c2-c1ccccc1 (centres unmarked)
7. CC(C(=O)Nc1cc(-c2[nH]c3ccn(C)c(=O)c3c2-c2ccc(O)cc2)ccn1)c1ccc(F)cc1 (racemic)

**Result**
2.7
6.2
1.1
4
37
3.1
15
